# target system: SVV-001 3C^pro (Seneca Valley virus, UniProt Q155Z9)
# Construct: made in house; host or cells: E. coli BL21 AI
# Sequence (Q155Z9 1509-1719): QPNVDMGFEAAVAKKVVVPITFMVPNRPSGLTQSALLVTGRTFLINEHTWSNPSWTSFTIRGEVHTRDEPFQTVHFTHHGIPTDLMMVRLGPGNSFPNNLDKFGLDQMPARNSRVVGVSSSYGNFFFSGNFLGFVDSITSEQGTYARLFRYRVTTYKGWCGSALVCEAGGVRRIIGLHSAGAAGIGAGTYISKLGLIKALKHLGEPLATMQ
# assay: FRET substrate cleavage assay with purified recombinant SVV-001 3C^pro
# Assay type: biochemical, Seneca Valley Virus (SVV-001)
# experimental context: FRET fusion protein substrate 200 nM, 250 nM SVV-001 3C^pro, 30°C, 3 h
measured parameter: cleavage by SVV-001 3C^pro (result in words)

- substance: "KLFKMQGP [2B/2C, endogenous SVV-001 cleavage site KLFKMQGP cloned between CyPet and YPet as FRET fusion protein substrate]"
  recorded value: "efficiently cleaved"
- substance: "IVYELQGN [L/VP4, endogenous SVV-001 3C^pro cleavage site IVYELQGN cloned between CyPet and YPet as FRET fusion protein substrate]"
  recorded value: "efficiently cleaved"

* * *

# target system: SVV-001 3C^pro (Seneca Valley virus, UniProt Q155Z9)
# Construct: made in house; host or cells: E. coli BL21 AI
# assay: FRET substrate cleavage assay with purified recombinant SVV-001 3C^pro
# Assay type: biochemical, Seneca Valley Virus (SVV-001)
# experimental context: CyPet/YPet FRET fusion protein substrate 200 nM, 250 nM SVV-001 3C^pro, PBS pH 7.4, 30°C, 3 h; average of 5–7 experiments, uncertainty SD; N/A where no cleavage was measurable
substances and their reported kcat/KM
measured parameter: kcat/KM (M⁻¹ s⁻¹)

- substance: "IVMELQGP [L/VP4.4, L/VP4.1 FRET substrate with P4 Y→M substitution]"
  measured parameter: "kcat/KM"
  recorded value: 10344
- substance: "VYELQGP [L/VP4.5, P6 truncation of L/VP4.1 FRET substrate]"
  measured parameter: "kcat/KM"
  recorded value: 9839
- substance: "IVFELQGP [L/VP4.3, L/VP4.1 FRET substrate with P4 Y→F substitution]"
  measured parameter: "kcat/KM"
  recorded value: 12160
- substance: "YELQGP [L/VP4.6, P5/P6 truncation of L/VP4.1 FRET substrate]"
  measured parameter: "kcat/KM"
  recorded value: 1939
